biological target: T1, whole KDR-ECD (Cat. # 676490, Calbiochem) (human, UniProt P35968 20-764); assay: ELISA, KDR-ECD coat 5 ug/mL, antibody 0.01 ug/mL
T1 construct: extracellular domain; Bought soluble protein; also called soluble KDR; VEGF Receptor 2 D1-7
T1 sequence (P35968 20-764): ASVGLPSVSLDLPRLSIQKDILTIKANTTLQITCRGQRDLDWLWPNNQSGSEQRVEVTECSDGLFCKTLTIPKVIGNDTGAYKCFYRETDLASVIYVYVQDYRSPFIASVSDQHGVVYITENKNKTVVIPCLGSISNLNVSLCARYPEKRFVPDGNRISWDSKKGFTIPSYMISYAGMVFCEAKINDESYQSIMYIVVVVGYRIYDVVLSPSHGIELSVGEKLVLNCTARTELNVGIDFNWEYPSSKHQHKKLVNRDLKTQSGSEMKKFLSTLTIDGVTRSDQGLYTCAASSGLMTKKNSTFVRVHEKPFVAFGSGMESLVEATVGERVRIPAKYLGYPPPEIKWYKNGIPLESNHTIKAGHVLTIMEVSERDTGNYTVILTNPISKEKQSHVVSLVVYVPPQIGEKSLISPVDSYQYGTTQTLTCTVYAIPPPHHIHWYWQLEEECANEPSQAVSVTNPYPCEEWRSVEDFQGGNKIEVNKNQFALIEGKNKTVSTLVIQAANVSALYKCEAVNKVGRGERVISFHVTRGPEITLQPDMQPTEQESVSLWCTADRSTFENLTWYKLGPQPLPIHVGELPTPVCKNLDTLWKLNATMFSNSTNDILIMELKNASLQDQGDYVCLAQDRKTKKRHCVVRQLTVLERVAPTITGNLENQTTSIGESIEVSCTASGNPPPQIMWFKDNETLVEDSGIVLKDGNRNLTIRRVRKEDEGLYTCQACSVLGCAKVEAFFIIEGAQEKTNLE
experimental_readout: ELISA reading
Give the figure only, with no unit attached.

Consider the worked cases shown below.
-- ask Give the value of ELISA reading reported for the following: 27A3 (antibody, V domains shown, Fully human monoclonal antibody from a XenoMouse hybridoma (IgG2 or IgG4 strain), purified) VH: QLQLQESGPGLVKPSETLSLTCTVSGGSISSRSDYWGWIRQPPGKGLEWIGTIYYSGDTYYNPSLKSRVTISVDTSKNQFSLKLSSVTAADTAVYYCARQQLVLYYFDYWGQGTLVTVSS VL: EIVLTQSPGTLSLSPGERATLSCRASQSVSSSYLAWYQQKPGQAPRLLIYATSNRATGIPDRFSGSGSGTDFTLTISRLEPEDFAVYYCQQHGSSPPLTFGGGTKVEIK
-- reply 0.093

-- ask Output measured ELISA reading for this item: 21H6 (antibody, V domains shown, Fully human monoclonal antibody from a XenoMouse hybridoma, purified) VH: QVQLVESGGGLVKPGGSLRLSCAASGFTFSDYYMSWIRQAPGKGLEWVSYISNSGITIYYADSVKGRFTISRDNAKNSLYLQMNSLRAGDTAVYYCAREEWYSSRWYRNFDYWGQGTLVTVSS VL: DIQMTQFSSSLSASVGDRVTITCRASQSISRYLNWYQQKPGKAPKLLIYAASSLQSGVPSRFNGSGSGTDFTLTISSLQPEDFATYYCQQSYSAPLTFGGGTKVEIK
-- reply 0.087

More entries:
-- ask Could you please provide reported ELISA reading for 32G7 (antibody, V domains shown, Fully human monoclonal antibody from a XenoMouse hybridoma (IgG2 or IgG4 strain), purified) VH: EVQLVESGGGLVKPGGSLRLSCAASGFTISSYSMNWVRQAPGKGLEWVSFISSRSNYIYYADSVKGRFTISRDNAKNSLYLQMNSLRAEDTAVYYCSKDDWFEELWGQGTLVTVSS VL: DIQMTQSPSSLSASVGDRVTITCRASQDIRNDLGWYQQKPGKAPKRLIYAASSLQSGVPSRFSGSGSGTEFTLTISSLQPEDFATYYCLQHNSFPWTFGQGTKVEIK ? Thanks!
-- reply 0.103
